Where do the numbers come from? From paper PMC6792352.

Reported CC50 at 24 h by item:
assay.text: in vitro
test.settings: rat, gh3-tre-luc cells, AC50 (uM) modified / 1000
Where a name gives a salt, the structure may show the parent alone.
readout.type: CC50 at 24 h

COCCCOc1cc(C[C@@H](C[C@H](N)[C@@H](O)C[C@H](C(=O)NCC(C)(C)C(N)=O)C(C)C)C(C)C)ccc1OC [Aliskiren hydrochloride]
> 50 µM
Nc1ccc(N=Nc2ccccc2)c(N)c1 [C.I. Basic Orange 2]
64.1 µM
S=C=Nc1ccccc1 [Phenyl isothiocyanate]
> 90 µM
COC(=O)CCC[N+](C)(C)C [Carpronium chloride]
> 50 µM
CCCCCCCCCI [1-Iodononane]
> 90 µM
COc1cc([C@@H]2c3cc4c(cc3[C@@H](O[C@@H]3O[C@@H]5CO[C@@H](C)O[C@H]5[C@H](O)[C@H]3O)[C@H]3COC(=O)[C@H]23)OCO4)cc(OC)c1OP(=O)(O)O [Etoposide phosphate]
> 50 µM
c1ccc(-c2nc[nH]c2-c2ccccc2)cc1 [4,5-Diphenylimidazole]
> 50 µM
CC(Cl)C(Cl)Cl (stereo not drawn) [1,1,2-Trichloropropane]
> 90 µM
CCCCOCCOCCO [2-(2-Butoxyethoxy)ethanol]
> 90 µM
CCC=CCCCCO (stereo in doubt) [(Z)-5-Octen-1-ol]
> 90 µM
CCC(=O)/C=C/C1C(C)=CCCC1(C)C (stereo not drawn) [Methylionone]
> 90 µM
C/C=C1\[C@H]2C=C(C)C[C@]1(N)c1ccc(=O)[nH]c1C2 [Huperzine A]
> 50 µM
OC[C@@H](O)[C@@H](O)[C@H](O)[C@@H](O)CO [D-Glucitol]
> 90 µM
FC(F)(F)c1cccc(C2=CCN(CCc3ccc4ccncc4c3)CC2)c1 [SSR150106]
76.9 µM
O=C1CN2Cc3c(ccc(Cl)c3Cl)N=C2N1 [Anagrelide hydrochloride]
> 50 µM
NC(=O)C1(N2CCCCC2)CCN(CCCC(=O)c2ccc(F)cc2)CC1 [Pipamperone dihydrochloride]
> 50 µM
CC(C)C(=O)c1ccccc1 [Isopropyl phenyl ketone]
> 90 µM
Cc1c(NC(C)C)c(=O)n(-c2ccccc2)n1C [Ramifenazone]
> 50 µM
CS(=O)(=O)c1ccc([C@@H](O)[C@@H](CF)NC(=O)C(Cl)Cl)cc1 [Florfenicol]
> 20 µM
CC(C)=CCCC(C)CC(=O)O (stereo not drawn) [Citronellic acid]
> 90 µM
CC(C)c1ccc2c(c1)CC[C@H]1[C@](C)(CN)CCC[C@]21C [Dehydroabietylamine acetate]
10.1 µM
O=C(Oc1ccccc1)c1ccccc1O [Phenyl salicylate]
> 50 µM
C[C@@H](N)C(=O)O [D-Alanine]
> 50 µM
C=CC(=O)OCC1CC2CC1C1CCC(COC(=O)C=C)C21 (stereo not drawn)
75.1 µM
CC(C)Oc1ccccc1O [2-Isopropoxyphenol]
> 90 µM
C[C@H]1C[C@H]2[C@@H]3CCC4=CC(=O)C=C[C@]4(C)[C@@]3(F)[C@@H](O)C[C@]2(C)[C@@]1(O)C(=O)CO [Betamethasone]
> 90 µM
CCCCOC(C)=O [Butyl acetate]
> 90 µM

====

assay.text: in vitro
test.settings: rat, gh3-tre-luc cells, AC50 (uM) modified / 1000
Structures can show the parent of a compound that is named as a salt.
readout.type: CC50 at 24 h

Cc1ccc2c(c1)c1c3n2CCNC3CCC1 (centres unmarked) [Pirlindole mesylate]
9.12 µM
CC(=O)c1cnccn1
> 100 µM
CC(C)(COC(=O)c1ccccc1)COC(=O)c1ccccc1 [Neopentyl glycol dibenzoate]
> 90 µM
c1ccc(CCCc2ccncc2)cc1
> 90 µM
COc1c(O[C@@H]2O[C@H](CO)[C@@H](O)[C@H](O)[C@H]2O)cc2c(c1OC)-c1ccc(SC)c(=O)cc1[C@@H](NC(C)=O)CC2 [Thiocolchicoside]
> 20 µM
CC(C)(C#N)c1cc(Cn2cncn2)cc(C(C)(C)C#N)c1
> 30 µM
CCCCNS(=O)(=O)c1ccccc1 [N-Butylbenzenesulfonamide]
> 90 µM
CCOC(=O)C1=C(C)NC(C)=C(C(=O)OC)C1c1cccc(Cl)c1Cl (centres unmarked)
13.5 µM
O=C(O)c1cc(=O)c2ccccc2o1
> 50 µM
NC[C@H](O)c1ccc(O)c(O)c1 [Norepinephrine]
57.7 µM
CC(C)SCc1ccco1 [Furfuryl isopropyl sulfide]
> 40 µM

====

Reported CC50 at 24 h by item:
assay.text: in vitro
test.settings: rat, gh3-tre-luc cells, AC50 (uM) modified / 1000
Structures can show the parent of a compound that is named as a salt.
readout.type: CC50 at 24 h

CCCCCCCCCCCCCCCCCC[N+](C)(C)Cc1ccccc1
11.4 µM
CN(C)C(=O)Nc1cccc(C(F)(F)F)c1
> 90 µM
Cc1ccccc1-n1c(C)nc2ccccc2c1=O
> 50 µM
CN(C)CCC=C1c2ccccc2C=Cc2ccccc21 [Cyclobenzaprine hydrochloride]
14.5 µM
Nc1nc(F)nc2c1ncn2[C@@H]1O[C@H](CO)[C@@H](O)[C@@H]1O
52 µM
CN(C)CCCCl
> 100 µM
CC[C@H]1OC(=O)[C@H](C)C(=O)[C@H](C)[C@@H](O[C@@H]2O[C@H](C)C[C@H](N(C)C)[C@H]2O)[C@](C)(OC)C[C@@H](C)C(=O)[C@H](C)[C@H]2N(CCCCn3cnc(-c4cccnc4)c3)C(=O)O[C@]12C
> 50 µM
COC(=O)c1cc(Cl)cc(Cl)c1 [Methyl 3,5-dichlorobenzoate]
> 90 µM
C[C@H](N[C@@H](CCc1ccccc1)C(=O)O)C(=O)N1CCC[C@H]1C(=O)O
> 50 µM
OCCOCCN1CCN(C2=Nc3ccccc3Sc3ccccc32)CC1
> 50 µM
CCN(CC)CCSC(=O)C(c1ccccc1)c1ccccc1
41 µM
Oc1ccccc1O
33.7 µM
ONc1ccccc1 [N-Phenylhydroxylamine]
> 100 µM
Cc1ccco1
> 90 µM
O=C(O)C[C@H](NC(=O)OCc1ccccc1)C(=O)O [N-[(Benzyloxy)carbonyl]-L-aspartic acid]
> 90 µM
O=C(CCN1CCN(CCO)CC1)N1c2ccccc2Sc2ccc(C(F)(F)F)cc21
16.3 µM
CNC(=S)NN [N-Methylhydrazinecarbothioamide]
52.5 µM
Cl/C=C\C[N+]12CN3CN(CN(C3)C1)C2 [Chloroallyl methenamine chloride]
> 90 µM
COc1cc(N)c(Cl)cc1C(=O)NC1CCN(CCCOc2ccc(F)cc2)CC1OC (stereo not drawn) [Cisapride]
13 µM
CCOC(=O)c1ccc(C)cc1 [Ethyl 4-methylbenzoate]
> 90 µM
CCCC(CC)c1ccccc1 (stereo not drawn)
> 90 µM
C=CC(=O)OCC(CC)CCCC (stereo not drawn) [2-Ethylhexyl acrylate]
> 90 µM
Clc1ccccc1
> 90 µM
CCCC1CCC(=O)CC1
> 90 µM
CN(C)[C@@H]1C(O)=C(C(N)=O)C(=O)[C@@]2(O)C(O)=C3C(=O)c4c(O)ccc(Cl)c4[C@@H](O)[C@H]3C[C@@H]12 [Demeclocycline hydrochloride]
> 50 µM
CCN(CC)CCOC(=O)C1(c2ccccc2)CCCC1 [Caramiphen edisylate]
43.2 µM
CCC(C)(c1ccc(O)cc1)c1ccc(O)cc1
78.3 µM
CCCCC/C=C/C/C=C/CCCCCCCC(=O)OCC [Ethyl linoleate]
> 50 µM
c1ccc(-c2ccccn2)nc1
> 90 µM
Nc1ccc(Cl)cc1[N+](=O)[O-]
> 90 µM
CC1=C(C/C=C(\C)CCC[C@H](C)CCC[C@H](C)CCCC(C)C)C(=O)c2ccccc2C1=O
> 50 µM
O=C(O)c1cc(/N=N/c2ccc(S(=O)(=O)Nc3ccccn3)cc2)ccc1O
> 90 µM
CCOc1ccc2nc(N)sc2c1
> 90 µM

====

assay.text: in vitro
test.settings: rat, gh3-tre-luc cells, AC50 (uM) modified / 1000
Counter-ions that a name gives are not always drawn.
readout.type: CC50 at 24 h

OC(c1ccc(Cl)cc1)(c1ccc(Cl)cc1)c1cccnc1
64.3 µM
Cc1nc2ccccc2c(=O)o1
> 90 µM
O=C(O)CN(CCN(CC(=O)O)CC(=O)O)CCN(CC(=O)O)CC(=O)O
25 µM
N#CCCCl
> 90 µM
CC(=O)OCc1ccco1 [Furfuryl acetate]
> 90 µM
CCCCC(CC)COP(=O)(OCC(CC)CCCC)OCC(CC)CCCC (stereo not drawn) [Tris(2-ethylhexyl) phosphate]
> 90 µM
CC(C)COC(=O)OCN1C(=O)CN(CCN2CC(=O)N(COC(=O)OCC(C)C)C(=O)C2)CC1=O
> 50 µM
CSc1ccc2c(c1)N(CCC1CCCCN1C)c1ccccc1S2 (stereo not drawn) [Thioridazine hydrochloride]
7.04 µM
CC(=O)c1cc(C)oc1C
> 90 µM
CC(C)(C)OC(=O)c1cccc(N)c1 [tert-Butyl-3-aminobenzoate]
> 90 µM
CCN(CC)c1ccc(N)cc1
64.7 µM
O=C1CCc2ccc(OCCCCN3CCN(c4cccc(Cl)c4Cl)CC3)cc2N1
11.8 µM
Cc1ccc(N)cc1O
> 90 µM
O=C1CCCCCCCCCCCCCCO1 [Pentadecan-15-olide]
> 90 µM
CC1(C)O[C@@H]2C[C@H]3[C@@H]4CCC5=CC(=O)CC[C@]5(C)[C@@]4(F)[C@@H](O)C[C@]3(C)[C@]2(C(=O)CCl)O1 [Halcinonide]
> 20 µM
CN(C)CCOCCN(C)C [Bis[2-(dimethylamino)ethyl]ether]
> 90 µM
CC(=O)O[C@]1(C(C)=O)CC[C@H]2[C@@H]3CCC4=CC(=O)CC[C@]4(C)[C@@]3(F)[C@@H](O)C[C@@]21C [Flurogestone acetate]
> 50 µM
C[N+]1(CCC(C(N)=O)(c2ccccc2)c2ccccc2)CCCCC1 [Fenpiverinium bromide]
> 50 µM
CCc1cnc(C2=NC(C)(C(C)C)C(=O)N2)c(C(=O)O)c1 (stereo not drawn)
> 90 µM
CO[C@H]1C[C@H](O[C@H]2[C@H](C)[C@@H](O[C@@H]3O[C@H](C)C[C@H](N(C)C)[C@H]3O)[C@@H](C)C[C@@]3(CO3)C(=O)[C@H](C)[C@@H](O)[C@@H](C)[C@@H](C)OC(=O)[C@@H]2C)O[C@@H](C)[C@@H]1O [Oleandomycin phosphate]
> 20 µM
C/C=C/c1ccc(OCC)c(O)c1 [trans-2-Ethoxy-5-(1-propenyl)phenol]
> 90 µM
